System: S. enterica typhimurium tolC KO;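 also: active when median AUC fell below 0.1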
Assay: growth AUC normalised to DMSO control (median) (fraction of control); higher = less growth inhibition, active = hit call of the paper
Conditions: 20 µM
Structures can show the parent of a compound that is named as a salt.
So I've got a bunch of compounds here, and I need their growth AUC normalised to DMSO control values.
Answers are plain numbers.

CCN(CCCCOC(=O)c1ccc(OC)c(OC)c1)C(C)Cc1ccc(OC)cc1 (stereo unspecified) [Mebeverine hydrochloride] :: 0.934
Cc1cccc(C)c1NC(=O)C1CCCCN1C (stereo unspecified) [Mepivacaine hydrochloride] :: 0.996
CCOC(=O)O[C@]1(C(=O)OCCl)CC[C@H]2[C@@H]3CCC4=CC(=O)C=C[C@]4(C)[C@H]3[C@@H](O)C[C@@]21C [Loteprednol etabonate] :: 0.953
COc1c(N2CCNC(C)C2)c(F)cc2c(=O)c(C(=O)O)cn(C3CC3)c12 (stereo unspecified) :: 0.0044
NC(=O)c1cc[n+](CC2=C(C(=O)O)N3C(=O)[C@@H](NC(=O)C(c4ccccc4)S(=O)(=O)[O-])[C@H]3SC2)cc1 (stereo partly specified) [Cefsulodin Sodium Salt Hydrate] :: 0.986

I'm hoping you can list growth AUC normalised to DMSO control for every compound here, please.
1. O=C(Nc1cccc2c(=O)cc(-c3nnn[nH]3)oc12)c1ccc(OCCCCc2ccccc2)cc1
2. CC1=C(/C=C/C(C)=C/C=C/C(C)=C\C(=O)O)C(C)(C)CCC1

1: 0.987; 2: 1

For every item in the list below, what is its measured growth AUC normalised to DMSO control?
1. C[C@H](O)C(=O)Nc1c(I)c(C(=O)NC(CO)CO)c(I)c(C(=O)NC(CO)CO)c1I
2. CCn1cc(C(=O)O)c(=O)c2cc(F)c(N3CCNC(C)C3)c(F)c21 (stereo unspecified) [Lomefloxacin hydrochloride]

1.01
0.0041

Parameters: items (list). Returns: growth AUC normalised to DMSO control for each item.
1. NS(=O)(=O)c1cc2c(cc1Cl)N=C(CSCc1ccccc1)NS2(=O)=O [Benzthiazide]
2. C[C@H]1C[C@@H]2[C@H]([C@@H](O)C[C@@]3(C)[C@H]2CC[C@]3(O)C(=O)CO)[C@@]2(C)C=CC(=O)C=C12
3. OCC(O)CN1CCN(c2ccccc2)CC1 (stereo unspecified)
4. CCCCN1CCCCC1C(=O)Nc1c(C)cccc1C (stereo unspecified) [Bupivacaine hydrochloride]
5. CCCCOC(=O)c1ccc(O)cc1
6. CC(C)(C)c1ccc(C(=O)CCCN2CCC(OC(c3ccccc3)c3ccccc3)CC2)cc1
7. Nc1nc(O)c2ncn(CCC(CO)CO)c2n1

1. 0.996
2. 1
3. 0.981
4. 0.985
5. 0.953
6. 0.97
7. 0.997

----------
Assign growth AUC normalised to DMSO control to each entry below.
Test system: Salmonella enterica typhimurium
Experiment: growth AUC normalised to DMSO control (fraction of control); higher = less growth inhibition, active = hit call of the paper
Conditions: 20 µM
Where a name gives a salt, the structure may show the parent alone.
Give bare numbers.

# count of solved cases: 7
CC(C)NCC(O)c1ccc2ccccc2c1 (stereo not drawn) [Pronethalol hydrochloride] :: 0.991
OC(CCN1CCCCC1)(c1ccccc1)C1CC2C=CC1C2 (stereo not drawn) [Biperiden hydrochloride] :: 0.987
Cc1ccnc(NS(=O)(=O)c2ccc(N)cc2)n1 :: 0.973
CCC(=O)O[C@]1(C(=O)SCF)[C@H](C)C[C@H]2[C@@H]3C[C@H](F)C4=CC(=O)C=C[C@]4(C)[C@@]3(F)[C@@H](O)C[C@@]21C [Fluticasone propionate] :: 0.996
COC(=O)[C@@H]1[C@H]2C[C@H]3c4[nH]c5ccccc5c4CCN3C[C@@H]2CC[C@@H]1O [Yohimbine hydrochloride] :: 0.984
CC[N+](CC)(CC)CCC(O)(c1ccccc1)C1CCCCC1 (stereo not drawn) [Tridihexethyl chloride] :: 1
Cc1cc(CC(=O)O)n(C)c1C(=O)c1ccc(Cl)cc1 [Zomepirac sodium salt] :: 0.997

Shift focus to the following entry.
What measured growth AUC normalised to DMSO control goes with NS(=O)(=O)c1cc(Cl)c(Cl)c(S(N)(=O)=O)c1 [Dichlorphenamide] ?
1.01
